Target: full-length WDR5 (UniProt P61964 2-334)
Assay method text: method not stated; ITC with full-length WDR5 by the Methods
pKd: −log10 of the molar value.
Documented pKd across a set of binders
Measured endpoint: pKd

INSERT INTO results (binder, measured_endpoint, reported_measurement) VALUES
  ('Ac-EHVTGCARSEGFYT-NH2 [Win motif peptide EHVTGCARSEGFYT (SEQ ID NO. 33)]', 'pKd', 6.94),
  ('Ac-VNPTGCARSEPKMS-NH2 [Win motif peptide VNPTGCARSEPKMS (SEQ ID NO. 30)]', 'pKd', 7.33),
  ('Ac-LNPHGAARAEVYLR-NH2 [Win motif peptide LNPHGAARAEVYLR (SEQ ID NO. 31)]', 'pKd', 7.28),
  ('Ac-EHQTGSARSEGYYP-NH2 [Win motif peptide EHQTGSARSEGYYP (SEQ ID NO. 32)]', 'pKd', 6.38),
  ('Ac-INPTGCARSEPKIL-NH2 [Win motif peptide INPTGCARSEPKIL (SEQ ID NO. 29)]', 'pKd', 7.11);

The reported numbers originate from patent US20130203167A1.
